# assayDetails: Tissue concentrations at study termination
# Assay type: in vivo, C57BL/6J mice
# testContext: C57BL/6J, mouse, gonadal fat, oral, 38 mg/kg per day (0.04% w/w in diet)
recordedEndpoint: concentration at 6 weeks
Don't forget the unit after the number, please.

Qu. # get_value(readout='concentration at 6 weeks', item= `COc1nc2nc(C(F)(F)F)[nH]c2nc1Nc1ccc(OC(F)(F)F)cc1F` )
Ans. 27000 ng/g

----------
# assayDetails: Mouse pharmacokinetics and oral bioavailability
# Format: in vivo, C57BL/6J mice
# testContext: C57BL/6J, plasma, 10 mg/kg
recordedEndpoint: half-life (min)
Express it in min; write the number only.

Qu. # get_value(readout='half-life', item= COc1nc2nc(C(F)(F)F)[nH]c2nc1Nc1ccc(OC(F)(F)F)cc1F [SHD865] )
Ans. 102

----------
# assayDetails: Tissue concentrations at study termination
# Format: in vivo, C57BL/6J mice
# testContext: C57BL/6J, mouse, brown fat, oral, 38 mg/kg per day (0.04% w/w in diet)
recordedEndpoint: concentration at 6 weeks

Qu. # get_value(readout='concentration at 6 weeks', item= `COc1nc2nc(C(F)(F)F)[nH]c2nc1Nc1ccc(OC(F)(F)F)cc1F` )
Ans. 18000 ng/g

----------
# assayDetails: Mouse pharmacokinetics and oral bioavailability
# Format: in vivo, C57BL/6J mice
# testContext: C57BL/6J, plasma, 10 mg/kg
recordedEndpoint: Cmax (µM)
Express it in µM; write the number only.

Qu. # get_value(readout='Cmax', item= `COc1nc2nc(C(F)(F)F)[nH]c2nc1Nc1ccc(OC(F)(F)F)cc1F` )
Ans. 9.1
